Target under test: T1, human MIC-1 receptor (hGFRAL, GDNF family receptor alpha like), full length (human, UniProt Q6UXV0 19-394)
T1 construct: whole, on cells
T1 sequence (looked up): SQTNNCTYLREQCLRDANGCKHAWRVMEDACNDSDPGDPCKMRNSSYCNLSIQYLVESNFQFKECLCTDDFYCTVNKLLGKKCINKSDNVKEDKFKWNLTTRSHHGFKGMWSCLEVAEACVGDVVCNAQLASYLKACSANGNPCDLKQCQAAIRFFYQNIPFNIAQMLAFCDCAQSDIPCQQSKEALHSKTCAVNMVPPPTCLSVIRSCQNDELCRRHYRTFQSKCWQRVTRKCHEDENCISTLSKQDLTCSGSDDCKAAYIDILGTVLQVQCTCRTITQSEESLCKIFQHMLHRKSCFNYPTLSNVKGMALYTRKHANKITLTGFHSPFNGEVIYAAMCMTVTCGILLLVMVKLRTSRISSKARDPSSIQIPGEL
Measurement notes: SPA: displacement of 50 pM human [125I]-MIC-1 from BHK21-hGFRAL-IRES-hRET cell membranes
Measured endpoint: pIC50
A value of pIC50 is the negative decimal logarithm of a concentration given in moles per litre.

GET /value?item= SEPCTSGSETPGTSESATPESGPGTSTEPSEG-MIC-1, des-N3 (Cys mutation A(-29)C) (ligand, homodimer; no protractor) SEPCTSGSETPGTSESATPESGPGTSTEPSEGARGDHCPLGPGRCCRLHTVRASLEDLGWADWVLSPREVQVTMCIGACPSQFRAANMHAQIKTSLHRLKPDTVPAPCCVPASYNPMVLIQKTDTGVSLQTYDDLLAKDCHCI &field=pIC50 returns 8.17

Per the records, this binder ( SEPATSGSETPGTSESATPESGPGTSTEPCEG-MIC-1, des-N3, M57L, M86L (Cys mutation S(-3)C) (ligand, homodimer; no protractor) SEPATSGSETPGTSESATPESGPGTSTEPCEGARGDHCPLGPGRCCRLHTVRASLEDLGWADWVLSPREVQVTMCIGACPSQFRAANLHAQIKTSLHRLKPDTVPAPCCVPASYNPLVLIQKTDTGVSLQTYDDLLAKDCHCI ) has pIC50 equal to 7.08
